Value source: the Human Domainome abundance scans (Beltran et al. 2025)

B1: Arginine-glutamic acid dipeptide repeats protein, residues 502 to 543; numbered along this chain, Q9P2R6 (parent)
chain: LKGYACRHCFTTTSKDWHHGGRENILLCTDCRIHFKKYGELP

- Variants of: B1
- testSummary: abundance fitness (aPCA) (normalised: wild type 0, dead -1); higher = more abundant; growth selection in yeast, the domain comes from the species named
- cond: Homo sapiens
So I've got a bunch of variants here, and I need their abundance fitness values.
Numbers only.

Field: example entries. Status: answers known.
A5F: 0.144
H8W: -0.044
D30T: 0.068
L41E: -0.301
C6F: -1.03

Would you be so kind as to report abundance fitness for each listed record?
1. H8M
2. S14W

-0.347
-0.657
